The following binders are listed with their measured 100 nM Ag Bound values.
Biological target: T1, Human IL2Rγ extracellular domain expressed with a C-terminal myc-myc-hexahistidine tag (human)
T1 construct: also called hIL-2Rg-MMH; hIL-2RG-MMH
T1 chain: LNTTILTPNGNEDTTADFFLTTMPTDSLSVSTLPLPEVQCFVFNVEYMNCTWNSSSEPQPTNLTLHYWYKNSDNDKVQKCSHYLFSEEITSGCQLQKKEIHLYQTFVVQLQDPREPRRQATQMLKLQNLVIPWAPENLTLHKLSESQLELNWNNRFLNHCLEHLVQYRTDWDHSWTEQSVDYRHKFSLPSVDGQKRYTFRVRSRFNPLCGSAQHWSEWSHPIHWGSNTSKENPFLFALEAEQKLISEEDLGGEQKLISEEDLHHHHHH
Experiment: SPR Biacore 4000, mAb captured by anti-hFc, HBS-ET, 37C
Report only the number, with the unit RU understood.

Example binders with recorded 100 nM Ag Bound:
binder | endpointLabel | valueReported
H4H12874P (antibody, human IgG4 S228P, kappa, V domains shown, anti-IL2Rγ monoclonal antibody expressed with human IgG4 Fc) VH: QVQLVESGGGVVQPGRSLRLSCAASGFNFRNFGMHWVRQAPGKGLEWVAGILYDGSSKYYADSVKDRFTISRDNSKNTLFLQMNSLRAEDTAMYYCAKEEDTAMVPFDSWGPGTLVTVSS VL: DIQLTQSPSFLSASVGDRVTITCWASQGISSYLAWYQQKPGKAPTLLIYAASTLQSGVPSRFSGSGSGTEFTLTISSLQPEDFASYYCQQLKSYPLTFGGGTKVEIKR | 100 nM Ag Bound | 52
H4H12890P (antibody, human IgG4 S228P, kappa, V domains shown, anti-IL2Rγ monoclonal antibody expressed with human IgG4 Fc) VH: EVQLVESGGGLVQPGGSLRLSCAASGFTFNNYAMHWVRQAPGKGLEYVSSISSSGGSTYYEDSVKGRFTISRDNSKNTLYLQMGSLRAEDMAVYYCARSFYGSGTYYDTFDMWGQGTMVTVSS VL: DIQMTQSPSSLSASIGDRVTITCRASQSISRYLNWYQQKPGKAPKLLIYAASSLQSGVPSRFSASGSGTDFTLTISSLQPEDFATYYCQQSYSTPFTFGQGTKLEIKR | 100 nM Ag Bound | 27

Now look at this entry.
Lookup: Find the recorded 100 nM Ag Bound belonging to H4H12900P (antibody, human IgG4 S228P, kappa, V domains shown, anti-IL2Rγ monoclonal antibody expressed with human IgG4 Fc) VH: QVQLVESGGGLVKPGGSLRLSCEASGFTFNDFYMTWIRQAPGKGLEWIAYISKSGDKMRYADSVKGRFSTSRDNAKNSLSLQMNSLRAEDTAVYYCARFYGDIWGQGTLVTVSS VL: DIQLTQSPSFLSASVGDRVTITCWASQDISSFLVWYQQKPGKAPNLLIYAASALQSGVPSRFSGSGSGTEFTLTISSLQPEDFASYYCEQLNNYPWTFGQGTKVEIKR and report it.
Found: 43
